- assay-system: T1, human MSLN-FL-his protein (human, UniProt Q13421 296-580)
- T1 construct: Made in HEK293E cells, purified on nickel column; it is put last here; also called human MSLN full-length protein; hMSLN-FL-his; not shown: His tag
- T1 sequence (Q13421 other isoform, or with tags, fused parts or gaps): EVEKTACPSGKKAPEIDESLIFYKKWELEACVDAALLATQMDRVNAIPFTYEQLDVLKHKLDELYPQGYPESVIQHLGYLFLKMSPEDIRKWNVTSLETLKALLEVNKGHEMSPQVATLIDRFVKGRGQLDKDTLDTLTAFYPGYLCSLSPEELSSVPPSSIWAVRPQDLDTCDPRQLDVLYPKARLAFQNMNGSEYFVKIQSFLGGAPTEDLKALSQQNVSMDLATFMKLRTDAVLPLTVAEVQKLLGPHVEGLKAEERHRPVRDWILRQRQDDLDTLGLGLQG
- protocol-text: ELISA on coated antigen, antibody 10 nM
metric-name: OD450 (OD)
Use OD as the unit, but write only the number.

Sample records with OD450:
S009-F8-32.3 (antibody, human IgG1, kappa, V domains shown, Human-murine chimeric antibody, human IgG1 heavy and kappa light constant regions) VH: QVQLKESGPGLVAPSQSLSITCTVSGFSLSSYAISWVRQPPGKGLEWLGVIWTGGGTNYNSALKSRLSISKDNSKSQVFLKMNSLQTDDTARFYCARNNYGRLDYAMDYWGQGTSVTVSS VL: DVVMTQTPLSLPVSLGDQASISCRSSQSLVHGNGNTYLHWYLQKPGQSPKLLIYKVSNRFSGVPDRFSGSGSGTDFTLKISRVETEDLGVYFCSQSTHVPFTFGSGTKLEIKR; 2.85
S009-F8-12.13 (antibody, human IgG1, kappa, V domains shown, Human-murine chimeric antibody, human IgG1 heavy and kappa light constant regions) VH: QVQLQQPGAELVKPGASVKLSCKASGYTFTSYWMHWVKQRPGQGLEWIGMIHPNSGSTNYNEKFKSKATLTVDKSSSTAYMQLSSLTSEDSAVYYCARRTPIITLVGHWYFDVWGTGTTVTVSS VL: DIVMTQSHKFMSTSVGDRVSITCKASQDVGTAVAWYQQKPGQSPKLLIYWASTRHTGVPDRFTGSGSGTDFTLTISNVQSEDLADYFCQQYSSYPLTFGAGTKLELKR; 2.53

Exercise: Fill blank: measured OD450 of the binder S009-F8-24.14 (antibody, human IgG1, kappa, V domains shown, Human-murine chimeric antibody, human IgG1 heavy and kappa light constant regions) VH: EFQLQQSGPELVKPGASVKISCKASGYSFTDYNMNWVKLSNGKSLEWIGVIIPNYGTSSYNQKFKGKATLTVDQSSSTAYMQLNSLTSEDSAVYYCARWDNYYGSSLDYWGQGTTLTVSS VL: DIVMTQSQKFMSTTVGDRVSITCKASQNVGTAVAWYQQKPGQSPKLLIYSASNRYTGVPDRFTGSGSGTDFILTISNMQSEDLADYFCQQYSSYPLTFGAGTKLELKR is ____.
Solution: 2.98
